# System: SN12C renal
# assay details: NCI tumour cell line growth inhibition, 48 h
readout kind: TGI

See these solved cases before continuing.
compound: O=[N+]([O-])c1cccc(/C=N/NC2=CS(=O)(=O)C=C2)c1
target or test system: SN12C renal
TGI: > 100 µM
//
compound: C#C[C@]1(O)CC[C@H]2[C@@H]3CC=C4c5sc(Nc6cc(F)ccc6F)nc5CC[C@]4(C)[C@H]3CC[C@@]21C
target or test system: SN12C renal
TGI: 5.23 µM
//
compound: CN(Cc1cnc2nc(N)nc(N)c2n1)c1ccc(C(=O)NC23CC4CC(CC(C4)C2)C3)cc1
target or test system: SN12C renal
TGI: 56.8 µM
//
compound: CCCCc1ccc(Nc2ncc3ncn(COCCO)c3n2)cc1
target or test system: SN12C renal
TGI: > 100 µM
//
compound: C[C@H]1[C@H](C)N1CC(O)Cn1ccnc1[N+](=O)[O-] (some centres undefined)
target or test system: SN12C renal
TGI: > 100 µM
//
compound: O=C(O)C(Cc1cnc[nH]1)N1C(=O)c2ccccc2C1=O (centres undefined)
target or test system: SN12C renal
TGI: > 100 µM
//
compound: O=S(=O)(O)O
target or test system: SN12C renal
TGI: 1450 µM
//
compound: ClC(Cl)=C(Cl)C1(Cl)CC1COCc1ccccc1 (centres undefined)
target or test system: SN12C renal
TGI: > 100 µM
//
compound: Cc1cc(C)c2c(c1)CC1(Cc3cc(C)c(C)cc3C1=O)C2=O (centres undefined)
target or test system: SN12C renal
TGI: > 100 µM
//
compound: COC(=O)C1CC2(C)C=CC1N(C(=O)OCc1ccccc1)C2 (centres undefined)
target or test system: SN12C renal
TGI: > 100 µM

Query compound follows.
Provide only the value of recorded TGI for Cc1cccc2c(N)c3cccc(C(=O)NCC[N+](C)(C)Cc4ccc([N+](=O)[O-])s4)c3nc12
49 µM

====

# System: ACHN renal
# assay details: NCI tumour cell line growth inhibition, 48 h
Recorded measurements of GI50, one per entry

Please review the entries below; each comes with its answer.
compound: O=C(CCN1CCCC1)Nc1ccc2c(NCc3ccccc3)c3ccccc3nc2c1
target or test system: ACHN renal
GI50: 0.465 µM
//
compound: Oc1c(C(Nc2ccccc2Br)c2ccccc2)ccc2cccnc12 (stereo not given)
target or test system: ACHN renal
GI50: 2.04 µM
//
compound: COc1ccc2c(c1)/C(=C\c1ccncc1)C(=O)N2
target or test system: ACHN renal
GI50: 4.41 µM
//
compound: CC1=CC2C(C(O)CC3(C)C2CC(C)C32OCOC23COCO3)C2(C)C/C(=C/O)C(=O)C=C12 (stereo not given)
target or test system: ACHN renal
GI50: 1.85 µM
//
compound: COc1ccc(/C=C(/c2ccccc2)[N+](=O)[O-])c(OC)c1
target or test system: ACHN renal
GI50: 1.49 µM

Please look at this compound and report its GI50: [2H]C([2H])([2H])NC(=O)c1nnc(NC(=O)C2CC2)cc1Nc1cccc(-c2ncn(C)n2)c1OC
5.53 µM

Identify measured GI50 corresponding to COc1ccc2c(c1)[n+](=O)c(C(=O)c1cccs1)c(C(F)(F)F)n2[O-]
8.64 µM

Name the recorded GI50 of the compound listed here: COc1cc2c3c(n(CCCN)c(=O)c2cc1OC)-c1ccc([N+](=O)[O-])cc1C3=O
5.2 µM

Please give measured GI50 of the following entry: CCCCC(SC(=S)N1CCCC1)C(=O)Nc1nc(CC(=O)OCC)cs1 (stereo not given)
59.3 µM

Name the recorded GI50 of the compound listed here: COc1cc(-c2nc3ccccc3s2)ccc1OCCCCOc1cc2c(cc1OC)C(=O)N1CCC[C@H]1C=N2
1.31 µM
